# Study system: human DGKα (Homo sapiens)
# Construct: TVMV protease cleavage site (C); Hexa-His (C); made in house; host or cells: Sf9 insect cells (baculovirus, Bac-to-Bac)
# Sequence (P23743 with tags, fused parts or gaps): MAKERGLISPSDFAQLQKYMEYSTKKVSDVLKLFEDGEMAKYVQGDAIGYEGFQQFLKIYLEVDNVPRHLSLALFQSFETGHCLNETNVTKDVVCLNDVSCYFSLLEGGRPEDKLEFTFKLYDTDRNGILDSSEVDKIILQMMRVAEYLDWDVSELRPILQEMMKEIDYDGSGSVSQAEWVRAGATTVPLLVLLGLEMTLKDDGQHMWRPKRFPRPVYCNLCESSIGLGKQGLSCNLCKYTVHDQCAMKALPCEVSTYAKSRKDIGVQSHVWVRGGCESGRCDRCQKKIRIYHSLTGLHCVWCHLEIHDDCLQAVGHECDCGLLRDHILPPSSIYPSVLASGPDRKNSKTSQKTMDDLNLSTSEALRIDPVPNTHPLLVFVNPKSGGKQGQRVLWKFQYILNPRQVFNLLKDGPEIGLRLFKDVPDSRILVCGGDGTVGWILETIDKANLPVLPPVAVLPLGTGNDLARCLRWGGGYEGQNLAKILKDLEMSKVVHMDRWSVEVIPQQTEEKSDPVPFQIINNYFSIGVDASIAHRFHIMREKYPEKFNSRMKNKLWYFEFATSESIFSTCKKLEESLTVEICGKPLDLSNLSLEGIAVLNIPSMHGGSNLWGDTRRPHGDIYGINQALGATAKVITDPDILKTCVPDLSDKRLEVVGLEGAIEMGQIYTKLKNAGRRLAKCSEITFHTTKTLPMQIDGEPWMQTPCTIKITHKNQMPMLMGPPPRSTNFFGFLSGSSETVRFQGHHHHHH
# Method description: DGKα LIPGLO assay (extruded liposome substrate), in vitro DGK inhibition
# Format: biochemical
# Assay setup: liposome (LIPGLO) assay; read-out: DGKa LIPGLO IC50
Readout: log10 of IC50 (log10 of the value in nM)
The common logarithm of IC50 in nM is what is listed.

CC[C@@H]1CN(c2cc(=O)n(C)c3ccc(C#N)nc23)[C@@H](C)CN1C(C)c1ccc(C#N)cc1 (single isomer, unassigned) [Example 1345]	1.61
C[C@@H]1CN(c2c(F)c(=O)n(C)c3ccc(C#N)nc23)[C@@H](C)CN1C(c1ccc(F)cc1)c1ccc(C#N)cc1 (some centres unmarked) [Example 328]	3.08
C[C@@H]1CN(c2cc(=O)n(C)c3ccc(C#N)nc23)[C@@H](C)CN1C(c1ccc(F)cc1)c1cncc(F)c1 (single isomer, unassigned) [Example 415]	4.54

// log10 of IC50 lookup, compound = CCC(c1cc(Cl)cc2c1OCC2)N1C[C@H](C)N(c2cc(=O)n(C)c3ccc(C#N)nc23)C[C@H]1C (some centres unmarked) [Example 353] , result: 4.86

// log10 of IC50 lookup, compound = CC[C@H]1CN(C(c2ccc(F)cc2)c2ccc(C(F)(F)F)cn2)[C@H](C)CN1c1cc(=O)n(C)c2ccc(C#N)nc12 (single isomer, unassigned) [Example 1131] , result: 1.86

// log10 of IC50 lookup, compound = C[C@@H]1CN(c2cc(=O)n(C)c3ccc(C#N)nc23)[C@@H](C)CN1CC1CCOCC1 [Example 623] , result: 5.11

// log10 of IC50 lookup, compound = CC[C@@H]1CN(c2c(F)c(=O)n(C)c3ccc(C#N)nc23)[C@@H](C)CN1C(C)c1ccc(OC(F)(F)F)cc1 (single isomer, unassigned) [Example 1328] , result: 3.69

// log10 of IC50 lookup, compound = CC(C)OC(=O)C1CN(c2cc(=O)n(C)c3ccc(C#N)nc23)CCN1C(c1ccc(F)cc1)c1ccc(F)cc1 (single isomer, unassigned) [Example 62] , result: 5.38
